measured_target: Dimer of Gag-Pol polyprotein [489-587] (Human immunodeficiency virus 1)
Construct: 489-587
assay_info: Protease Inhibition Assay
setup_conditions: pH 6.5; 37 °C
Method: Sensitivity of HIV-1 protease activity to protease inhibitors was determined by a peptide substrate cleavage assay. Protease products were analyzed on a reverse-phase high-pressure liquid chromatograph.
pIC50: −log10 of the molar value.
Readings of pIC50 for the listed molecules
property: pIC50

>>> reported_value("O=C1C(=O)c2ccccc2C(=O)C1=C(c1ccc(Cl)cc1Cl)c1c(O)c(O)c2ccccc2c1O")
4.62
>>> reported_value("CCCC(=O)c1c(O)c(C)c(O)c(CC2C(=O)C(C(=O)CCC)C(=O)C(C)(C)C2=O)c1O (stereo not drawn)")
4.59
>>> reported_value("O=C1Oc2ccccc2C(O)C1Sc1c(O)c2ccccc2oc1=O (stereo not drawn)")
4.68
>>> reported_value("O=C(Oc1ccccc1)N(CCO)C(c1ccccc1)C(O)c1ccccc1 (stereo not drawn)")
4.49
>>> reported_value("O=c1oc2c(-c3ccccc3)cccc2c(O)c1-c1ccccc1")
4.89
>>> reported_value("C[C@]12CCC(=O)C=C1CC[C@@H]1[C@H]2[C@@H](O)C[C@@]2(C)[C@@H]1CC[C@]2(O)C(=O)COC(=O)CCC(=O)O")
4.57
>>> reported_value("CC(=O)NC(Cc1ccsc1)(C(=O)O)C(=O)O")
4.64
>>> reported_value("O=c1oc2ccccc2c(O)c1C(c1ccc(C(c2c(O)c3ccccc3oc2=O)c2c(O)c3ccccc3oc2=O)cc1)c1c(O)c2ccccc2oc1=O")
5.77
>>> reported_value("CCCCCCc1cc2c(cc1O)OC(=O)C(C(c1ccccc1)c1c(O)c3cc(CCCCCC)c(O)cc3oc1=O)C2O (stereo not drawn)")
6.49
>>> reported_value("CC(C)CC(NC(=O)OCc1ccccc1)(C(=O)O)C(=O)O")
4.77
>>> reported_value("O=c1oc2ccccc2c(O)c1-c1ccccc1")
4.38
>>> reported_value("O=c1oc2ccccc2c(O)c1C(c1ccc2c(c1)OCO2)c1c(O)c2ccccc2oc1=O")
4.52
>>> reported_value("CC(C)c1cccc(C(C)C)c1NC(=O)C(=O)CC(=O)CC(c1ccccc1)c1c(O)c2ccccc2oc1=O (stereo not drawn)")
4.51
>>> reported_value("O=c1oc2cccc(O)c2c(O)c1Cc1ccccc1")
5.22
>>> reported_value("O=C1C2=C(C(=O)c3ccccc31)C(O)(S(=O)(=O)O)C(O)(S(=O)(=O)O)C1N=CC=CC21 (stereo not drawn)")
5.70
>>> reported_value("O=C1C(=O)c2ccccc2C(=O)C1=C(c1ccc(C(C2C(=O)C(=O)c3ccccc3C2=O)C2C(=O)C(=O)c3ccccc3C2=O)cc1)c1c(O)c(O)c2ccccc2c1O (stereo not drawn)")
6.12
>>> reported_value("CC1(C)CC[C@]2(C(=O)O)CC[C@@]3(C)C(=CC[C@H]4[C@@]5(C)C[C@H](O)[C@H](O)[C@](C)(C(=O)O)[C@H]5CC[C@]43C)[C@@H]2C1")
4.46
>>> reported_value("CC(=O)OC1CCC2(C)C(C)C(C)CCC2(O)C1O (stereo not drawn)")
4.80
